Origin of the recorded values: patent US8658604B2

Here, each record is paired with measured pIC50 data.
- MEASURED ON: Chymotrypsin, from human pancreas (Homo sapiens)
- Sequence (P17538 19-263): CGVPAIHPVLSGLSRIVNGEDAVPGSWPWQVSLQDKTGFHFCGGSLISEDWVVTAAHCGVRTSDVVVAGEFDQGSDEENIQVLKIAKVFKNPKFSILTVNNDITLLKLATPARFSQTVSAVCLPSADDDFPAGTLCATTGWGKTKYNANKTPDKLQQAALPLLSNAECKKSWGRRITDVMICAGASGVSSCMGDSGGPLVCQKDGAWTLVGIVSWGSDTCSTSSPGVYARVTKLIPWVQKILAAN
- ASSAY NAME: Enzymatic assay, chymotrypsin
Where a SMILES comes first, the peptide text is derived from it.
Please note pIC50 is a logarithmic value: minus log10 of concentration in mol/L. Answer with that number alone.

Completed entries (count: 5):
CCCCCCCC[C@@H]1NC(=O)[C@@H]2CCCN2C(=O)[C@H]2CCCN2C(=O)[C@H](Cc2ccc(O)cc2)NC(=O)[C@@H]2CSSC[C@H](NC1=O)C(=O)N[C@@H]([C@@H](C)O)C(=O)N[C@@H](C)C(=O)N[C@@H](CO)C(=O)N[C@@H]([C@@H](C)CC)C(=O)N1CCC[C@H]1C(=O)N1CCC[C@H]1C(=O)N[C@@H](CCC(N)=O)C(=O)N2 [Ex. 102] (HELM PEPTIDE1{[CCCCCCCC[C@H](N[*:1])C(=O)[*:2]].C.T.A.S.I.P.P.Q.C.Y.[dP].P}$PEPTIDE1,PEPTIDE1,2:R3-10:R3|PEPTIDE1,PEPTIDE1,1:R1-13:R2$$$V2.0) :: 5.30
CCCC[C@@H]1NC(=O)[C@H](CCC(N)=O)NC(=O)[C@H]2CCCN2C(=O)[C@H](Cc2ccc(O)cc2)NC(=O)[C@@H]2CSSC[C@H](NC1=O)C(=O)N[C@@H]([C@@H](C)O)C(=O)N[C@@H](C)C(=O)N[C@@H](CO)C(=O)N[C@@H]([C@@H](C)CC)C(=O)N1CCC[C@H]1C(=O)N1CCC[C@H]1C(=O)N[C@@H](CCC(N)=O)C(=O)N2 [Ex. 123] (HELM PEPTIDE1{[Nle].C.T.A.S.I.P.P.Q.C.Y.[dP].Q}$PEPTIDE1,PEPTIDE1,2:R3-10:R3|PEPTIDE1,PEPTIDE1,1:R1-13:R2$$$V2.0) :: 4.82
CCCC[C@@H]1NC(=O)[C@@H]2CCCN2C(=O)[C@@H](Cc2ccccc2)NC(=O)[C@H](Cc2ccc(O)cc2)NC(=O)[C@@H]2CSSC[C@H](NC1=O)C(=O)N[C@@H]([C@@H](C)O)C(=O)N[C@@H](C)C(=O)N[C@@H](CO)C(=O)N[C@@H]([C@@H](C)CC)C(=O)N1CCC[C@H]1C(=O)N1CCC[C@H]1C(=O)N[C@@H](CCC(N)=O)C(=O)N2 [Ex. 116] (HELM PEPTIDE1{A.S.I.P.P.Q.C.Y.[dF].P.[Nle].C.T}$PEPTIDE1,PEPTIDE1,7:R3-12:R3|PEPTIDE1,PEPTIDE1,1:R1-13:R2$$$V2.0) :: 4.40
CCCC[C@@H]1NC(=O)[C@@H]2CCCN2C(=O)[C@H]2CCCN2C(=O)[C@H](Cc2ccc(O)cc2)NC(=O)[C@@H]2CSSC[C@H](NC1=O)C(=O)N[C@@H]([C@@H](C)O)C(=O)N[C@@H](C)C(=O)N[C@@H](CO)C(=O)N[C@@H](CCC(C)C)C(=O)N1CCC[C@H]1C(=O)N1CCC[C@H]1C(=O)N[C@@H](CCC(N)=O)C(=O)N2 [Ex. 83] (HELM PEPTIDE1{[Nle].C.T.A.S.[CC(C)CC[C@H](N[*:1])C(=O)[*:2]].P.P.Q.C.Y.[dP].P}$PEPTIDE1,PEPTIDE1,2:R3-10:R3|PEPTIDE1,PEPTIDE1,1:R1-13:R2$$$V2.0) :: 4.00
CC[C@H](C)[C@@H]1NC(=O)[C@H](CO)NC(=O)[C@H](C)NC(=O)[C@H]([C@@H](C)O)NC(=O)[C@@H]2CSSC[C@H](NC(=O)[C@H](CCC(N)=O)NC(=O)[C@@H]3CCCN3C(=O)[C@@H]3CCCN3C1=O)C(=O)N[C@@H](Cc1ccc(O)cc1)C(=O)N1CCC[C@@H]1C(=O)N1CCC[C@H]1C(=O)N[C@@H](CCc1ccccc1)C(=O)N2 [Ex. 103] (HELM PEPTIDE1{[O=C([C@H](CCc1ccccc1)N[*:1])[*:2]].C.T.A.S.I.P.P.Q.C.Y.[dP].P}$PEPTIDE1,PEPTIDE1,2:R3-10:R3|PEPTIDE1,PEPTIDE1,1:R1-13:R2$$$V2.0) :: 5.37

Now examine the next entry.
Task: Dear colleague, I am looking for the recorded pIC50 of the following compound: CCCC[C@@H]1NC(=O)[C@@H]2CCCN2C(=O)[C@H]2CCCN2C(=O)[C@H](c2ccccc2)NC(=O)[C@@H]2CSSC[C@H](NC1=O)C(=O)N[C@@H]([C@@H](C)O)C(=O)N[C@@H](C)C(=O)N[C@@H](CO)C(=O)N[C@@H]([C@@H](C)CC)C(=O)N1CCC[C@H]1C(=O)N1CCC[C@H]1C(=O)N[C@@H](CCC(N)=O)C(=O)N2 [Ex. 98] (HELM PEPTIDE1{[Nle].C.T.A.S.I.P.P.Q.C.[Phg].[dP].P}$PEPTIDE1,PEPTIDE1,2:R3-10:R3|PEPTIDE1,PEPTIDE1,1:R1-13:R2$$$V2.0)
Output: 4.41
